Reference source: PubChem BioAssay (NCATS)

- System: HEK293T
- ASSAY_OVERVIEW: qHTS assay to identify novel small-molecules to repurpose for Merkel cell carcinoma treatment (AID 1296009); also: nearly all actives have a fitted effect of over 60% in size
- DETAILS: MCC and control cell lines, CellTiter-Glo viability, 72 h; series mostly up to 44.8 µM
Records with an inconclusive call do not appear. Active and inactive are the calls of the source. Calls follow the shape of the dose curve; as a rule, active = well fitted inhibition curve with a large enough effect; inconclusive = small, poorly fitted or top-dose-only effect; inactive = flat fitted curve, though single readings scatter. *1 amine or outer side, *2 acyl side, *3 side chain or, on linkers, in order; H or OH if unused. Where a SMILES comes first, the peptide text is derived from it. Bridges are numbered along the chain shown (N, C = ends). X6 = O=C(CCC[*:2])[*:1]
ASSAY_METRIC: outcome

The following compounds have reported results that may help.
| COMPOUND | OBSERVED_RESULT |
| --- | --- |
| CC[C@H](C)[C@@H]1NC(=O)[C@H](Cc2ccc(OC)cc2)NC(=O)CCCSC[C@@H](C(=O)N2CCC[C@H]2C(=O)N[C@@H](CC(C)C)C(=O)NCC(N)=O)NC(=O)[C@H](CC(N)=O)NC(=O)[C@H](CCC(N)=O)NC1=O (Y(Me)IQNCPLG-NH2; linker N-5 via X6) | inactive |
| CNC(=O)COC(=O)NCCC1CCN(c2cccc(C)n2)CC1 | inactive |
| O=C(c1ccc(C#Cc2cccc(F)c2)cn1)N1CC2CC2C1 (centres undefined) | inactive |
| CC(=O)O[C@H](C[C@@H](C)[C@H]1C(=O)[C@H](O)[C@@]2(C)[C@@H]3CCC4C(C)(C)[C@@H](O[C@@H]5OC[C@H](O)[C@H](O)[C@H]5O)CC[C@@]45C[C@@]35CC[C@]12C)[C@@H]1OC1(C)C (some centres undefined) | inactive |
| CC(=O)OC[C@]1(O)[C@H]2[C@H](OC(=O)CC(C)C)OC=C(CO[C@@H]3O[C@H](CO)[C@@H](O)[C@H](O)[C@H]3O)[C@H]2C[C@@H]1O | inactive |

Batch lookup, outcome per entry.
1. CC(=O)OC1C(O)CC(O[C@@H]2O[C@H](CO)[C@@H](O)[C@H](O)[C@H]2O)C2CCC3C(=O)OC(c4ccoc4)CC3(C)C21 (some centres undefined)
2. C/C=C/C1=CC2=C(CO1)C(=O)[C@](C)(O)[C@H](OC(=O)c1c(O)cc(OC)c(O)c1C)C2
3. C=C1CCC2C(C)(COC3OC(COC(=O)CC(=O)O)C(O)C(O)C3O)CCCC2(C)C1CCC1=CCOC1=O (centres undefined)
4. CC(=O)c1c(O)cc2cccc3c2c1CC(C)(O)O3 (centres undefined)
5. CCC(CCO[C@@H]1O[C@H](CO[C@H]2OC[C@](O)(CO)[C@H]2O)[C@@H](O)[C@H](O)[C@H]1O)C(C)(C)O (some centres undefined)

1: inactive; 2: inactive; 3: inactive; 4: inactive; 5: inactive
